Experiment: Plasma psilocin by LC-MS/MS after intraperitoneal psilocybin or psilacetin fumarate
Conditions: both, C57Bl6/J, mouse, plasma, ip, psilocin half-life (T1/2), plasma psilocin from psilocybin or psilacetin, mice
test_readout: half-life

Query: Answer with the recorded half-life of CN(C)CCc1c[nH]c2cccc(O)c12 [psilocin] only.
Reply: ~30 min

* * *

Assay: Plasma psilocin by LC-MS/MS after intraperitoneal psilocybin or psilacetin fumarate
Conditions: both, C57Bl6/J, mouse, plasma, ip
test_readout: k el (s⁻¹)
All answers are understood in s⁻¹, so give the number only.

Query: Answer with reported k el of `CN(C)CCc1c[nH]c2cccc(O)c12`
Reply: 0.000433
